The reported numbers originate from patent US8299070B2.

Collected IC50 values appear next to each entry.
molecular target: hITK enzyme (FLAG-tagged full-length hITK) (Homo sapiens); construct: strongly expressing FLAG-tagged full-length hITK in Sf9 cells; FLAG; made in house; host or cells: Sf9 insect cells (ITK); Escherichia coli (GST-SLP76 substrate); test: ITK inhibitory activity (HTRF kinase assay, biotinylated GST-SLP76 substrate); format: biochemical; conditions: IC50 calculated from the 2 test compound concentrations sandwiching 50% ITK inhibitory rate

compound	assay target	unit spec	modifier	IC50
COCC(=O)N(C)c1ccc2cc(-c3n[nH]c4c3CCC(C)(C)C4)[nH]c2c1	hITK enzyme (FLAG-tagged full-length hITK) (Homo sapiens)	nM	<	3
CN(C)CCN(C(=O)C1CCCCC1)c1ccc2cc(-c3n[nH]c4c3CCC(C)(C)C4)[nH]c2c1	hITK enzyme (FLAG-tagged full-length hITK) (Homo sapiens)	nM	<	3
CCN(C(=O)CN1C(=O)COC[C@@H]1C)c1ccc2cc(-c3n[nH]c4c3CCC(C)(C)C4)[nH]c2c1	hITK enzyme (FLAG-tagged full-length hITK) (Homo sapiens)	nM	=	3
CN(C(=O)CN1CCOC1=O)c1ccc2cc(-c3n[nH]c4c3CCC(C)(C)C4)[nH]c2c1	hITK enzyme (FLAG-tagged full-length hITK) (Homo sapiens)	nM	=	2
CN(C(=O)C1CC(=O)OC1(C)C)c1ccc2cc(-c3n[nH]c4c3CCC(C)(C)C4)[nH]c2c1 (stereo not shown)	hITK enzyme (FLAG-tagged full-length hITK) (Homo sapiens)	nM	=	7
CN(C(=O)C1CCOCC1)c1ccc2cc(-c3n[nH]c4c3CCC(C)(C)C4)[nH]c2c1	hITK enzyme (FLAG-tagged full-length hITK) (Homo sapiens)	nM	=	5
CC1(C)CCc2c(-c3cc4ccc(N5CCC(CO)(C6CCCCC6)C5=O)cc4[nH]3)n[nH]c2C1 (stereo not shown)	hITK enzyme (FLAG-tagged full-length hITK) (Homo sapiens)	nM	=	34
CC1(C)CCc2c(-c3cc4cc(C(=O)NCc5ccccc5)ccc4[nH]3)n[nH]c2C1	hITK enzyme (FLAG-tagged full-length hITK) (Homo sapiens)	nM	=	60
CC1(C)CCc2c(-c3cc4cc(C(=O)NCC(=O)O)ccc4[nH]3)n[nH]c2C1	hITK enzyme (FLAG-tagged full-length hITK) (Homo sapiens)	nM	=	27
CC1(C)CCc2c(-c3cc4cc(C(=O)NCc5nnn[nH]5)ccc4[nH]3)n[nH]c2C1	hITK enzyme (FLAG-tagged full-length hITK) (Homo sapiens)	nM	=	21
COCC(OC)C(=O)N(C)c1ccc2cc(-c3n[nH]c4c3CCC(C)(C)C4)[nH]c2c1 (stereo not shown)	hITK enzyme (FLAG-tagged full-length hITK) (Homo sapiens)	nM	=	8
CN1CCC(C(=O)N(C)c2ccc3cc(-c4n[nH]c5c4CCC(C)(C)C5)[nH]c3c2)CC1	hITK enzyme (FLAG-tagged full-length hITK) (Homo sapiens)	nM	=	55
C[C@@H]1CCc2c(-c3cc4ccc(N(C)C(=O)c5ccccc5)cc4[nH]3)n[nH]c2C1	hITK enzyme (FLAG-tagged full-length hITK) (Homo sapiens)	nM	=	38

====

target: hITK enzyme (FLAG-tagged full-length hITK) (Homo sapiens, UniProt Q08881); construct: strongly expressing FLAG-tagged full-length hITK in Sf9 cells; FLAG; made in house; host or cells: Sf9 insect cells (ITK); Escherichia coli (GST-SLP76 substrate); assay: ITK inhibitory activity (HTRF kinase assay, biotinylated GST-SLP76 substrate); assay type: biochemical; settings: IC50 calculated from the 2 test compound concentrations sandwiching 50% ITK inhibitory rate
Sequence (Q08881 whole entry): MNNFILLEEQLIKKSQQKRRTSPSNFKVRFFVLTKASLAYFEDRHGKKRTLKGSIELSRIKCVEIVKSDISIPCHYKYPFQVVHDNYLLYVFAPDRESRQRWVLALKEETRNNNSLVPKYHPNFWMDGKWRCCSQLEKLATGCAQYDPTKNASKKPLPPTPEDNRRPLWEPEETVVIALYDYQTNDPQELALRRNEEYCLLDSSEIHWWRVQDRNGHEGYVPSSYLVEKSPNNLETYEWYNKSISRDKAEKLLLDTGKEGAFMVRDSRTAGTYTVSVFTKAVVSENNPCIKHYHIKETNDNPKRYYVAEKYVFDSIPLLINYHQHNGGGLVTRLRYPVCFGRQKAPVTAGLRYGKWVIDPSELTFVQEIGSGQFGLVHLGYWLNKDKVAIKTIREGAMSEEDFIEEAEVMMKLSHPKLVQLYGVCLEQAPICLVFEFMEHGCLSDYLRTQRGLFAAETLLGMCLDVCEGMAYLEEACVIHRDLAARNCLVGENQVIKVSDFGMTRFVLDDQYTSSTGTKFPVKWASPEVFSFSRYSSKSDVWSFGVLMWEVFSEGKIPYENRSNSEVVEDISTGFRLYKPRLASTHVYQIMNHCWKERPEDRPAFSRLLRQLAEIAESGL
Please respond with Fulfilled when measured IC50 is strictly beneath 70 nM, and with Not fulfilled in all other cases.

compound	assay target	class label
CC1(C)CCc2c(-c3cc4cc(NC(=O)c5ccccc5)ccc4[nH]3)n[nH]c2C1	hITK enzyme (FLAG-tagged full-length hITK) (Homo sapiens, UniProt Q08881)	Not fulfilled
CC(=O)N(C)c1ccc2cc(-c3n[nH]c4c3CCCC4)[nH]c2c1	hITK enzyme (FLAG-tagged full-length hITK) (Homo sapiens, UniProt Q08881)	Fulfilled
CC(C(=O)N(C)c1ccc2cc(-c3n[nH]c4c3CCC(C)(C)C4)[nH]c2c1)N1CCCC1=O (centres unmarked)	hITK enzyme (FLAG-tagged full-length hITK) (Homo sapiens, UniProt Q08881)	Fulfilled
CC(NC(=O)c1ccc2[nH]c(-c3n[nH]c4c3CCC(C)(C)C4)cc2c1)C(C)(C)C (centres unmarked)	hITK enzyme (FLAG-tagged full-length hITK) (Homo sapiens, UniProt Q08881)	Not fulfilled
CC(C(=O)N(C)c1ccc2cc(-c3n[nH]c4c3CCC(C)(C)C4)[nH]c2c1)C1CCOCC1 (centres unmarked)	hITK enzyme (FLAG-tagged full-length hITK) (Homo sapiens, UniProt Q08881)	Fulfilled
CN(C(=O)C(C)(C)CO)c1ccc2cc(-c3n[nH]c4c3CCC(C)(C)C4)[nH]c2c1	hITK enzyme (FLAG-tagged full-length hITK) (Homo sapiens, UniProt Q08881)	Fulfilled
CC1(C)CCc2c(-c3cc4ccc(N(CCO)C(=O)CN5CCOCC5)cc4[nH]3)n[nH]c2C1	hITK enzyme (FLAG-tagged full-length hITK) (Homo sapiens, UniProt Q08881)	Fulfilled
CN(C(=O)c1ccc2cc(-c3n[nH]c4c3CCC(C)(C)C4)[nH]c2c1)c1ccccc1	hITK enzyme (FLAG-tagged full-length hITK) (Homo sapiens, UniProt Q08881)	Fulfilled
